CC50 at 168 h values, listed per item
assayName: Cytotoxicity assay on L929 fibroblasts (AlamarBlue)
Type: cell-based
assayContext: mouse

molecule	comparator	CC50 at 168 h / µM
Clc1ccc(CCC(Cn2ccnc2)Sc2c(Cl)cccc2Cl)cc1 (centres unmarked) [BTZ, butoconazole]	=	17.5
O=C(Cn1ccnc1[N+](=O)[O-])NCc1ccccc1 [BZ, benznidazole]	>	200

---

Test system: H9C2 mammalian cells
assayName: in vitro
Format: cell-based
assayContext: rat, 24 h

molecule	CC50 / µM
Clc1ccc(CCC(Cn2ccnc2)Sc2c(Cl)cccc2Cl)cc1 (stereo not shown)	36.4

---

assayName: Cytotoxicity assay on L929 fibroblasts (AlamarBlue)
Format: cell-based
assayContext: mouse, L929 fibroblast cells; printed in the 168 h column; read-out: Cytotoxicity on L929 cells pEC50 (converted)

itemSmiles	EC50 at 168 h
O=C(Cn1ccnc1[N+](=O)[O-])NCc1ccccc1	> 200 µM

Data provenance is paper PMC12799219.
